METHOD_NOTES: AUC in Balb/C mouse at 1 mg/kg, iv
Assay type: ADME, organism-based
Design: dose 1 mg/kg, route intravenous
STATED_CONDITIONS: plasma
Provide the recorded AUC for the entries that follow.
Expressed in µM·h, but write only the number.

Challenge: Tell me measured AUC for `CN[C@@H](C)C(=O)N[C@H](C(=O)N1Cc2cc(O[C@H]3C[C@@H](C(=O)N[C@@H]4CCCc5ccccc54)N(C(=O)[C@@H](NC(=O)[C@H](C)NC)C(C)(C)C)C3)ccc2C[C@H]1C(=O)N[C@@H]1CCCc2ccccc21)C(C)(C)C` please.
Response given: 0.029

Challenge: Check the records and state AUC for `CN[C@@H](C)C(=O)N[C@H](C(=O)N1Cc2cc([C@H]3C[C@@H](C(=O)N[C@@H]4CCCc5ccccc54)N(C(=O)[C@@H](NC(=O)[C@H](C)NC)C(C)(C)C)C3)ccc2C[C@H]1C(=O)N[C@@H]1CCCc2ccccc21)C(C)(C)C`
Response given: 1

Challenge: Dear colleague, please send me the reported AUC for `CN[C@@H](C)C(=O)N[C@H](C(=O)N1Cc2cc(C(=O)N[C@H]3C[C@@H](C(=O)N[C@@H]4CCCc5ccccc54)N(C(=O)[C@@H](NC(=O)[C@H](C)NC)C(C)(C)C)C3)ccc2C[C@H]1C(=O)N[C@@H]1CCCc2ccccc21)C(C)(C)C` when you can.
Response given: 1

Challenge: Fill in AUC for record `CN[C@@H](C)C(=O)N[C@H](C(=O)N1Cc2cc(N[C@H]3C[C@@H](C(=O)N[C@@H]4CCCc5ccccc54)N(C(=O)[C@@H](NC(=O)[C@H](C)NC)C(C)(C)C)C3)ccc2C[C@H]1C(=O)N[C@@H]1CCCc2ccccc21)C(C)(C)C`
Response given: 1
